The origin of these recorded values is PubChem BioAssay (NCATS).

Assay: qHTS profiling of the MIPE4 collection as inhibitors of Plasmodium falciparum (HB3) proliferation (AID 743347);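 also: plate controls were DMSO vehicle wells for no effect and artemisinin wells for full effect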
Details: P. falciparum HB3 in erythrocytes, SYBR Green DNA, 72 h; at 28.5 µM (top of the series) unless noted
Define the label as true (1) when growth, % of control is strictly less than 7% and as false (0) in all remaining cases.

Compound	Class Assignment
CCOC(=O)[C@H]1O[C@H]1C(=O)N[C@@H](CC(C)C)C(=O)NCCC(C)C	true (1)
COc1cc2ncn(-c3cc(OCc4ccccc4S(C)(=O)=O)c(C#N)s3)c2cc1OC	false (0)
O=C(CC12CC3CC(CC(C3)C1)C2)Nc1cccc2nc(NCCNCCO)ccc12	true (1)
NS(=O)(=O)c1ccc(Nc2nc(OCC3CCCCC3)c3[nH]cnc3n2)cc1	false (0)
Cc1nn(Cc2ccccc2Cl)c(C)c1CN(C)CC(O)COc1ccc(Cl)cc1 (stereo unspecified)	false (0)
COc1ccc(-c2cc(=O)c3c(O)cc(O[C@@H]4O[C@H](CO[C@@H]5O[C@@H](C)[C@H](O)[C@@H](O)[C@@H]5O)[C@@H](O)[C@H](O)[C@@H]4O)cc3o2)cc1O	false (0)
C[C@H]1O[C@@H](n2cc(F)c(=O)[nH]c2=O)[C@H](O)[C@H]1O	false (0)
